Attribution: PubChem BioAssay (NCI)

system: SK-OV-3 ovarian; experiment: NCI-60 one-dose screen, 48 h (100 = growth as untreated, 0 = no growth, -100 = all killed); conditions: 10 µM
This is part of a sample that, as a whole, favours compounds with a hit. Of some 83,000 tested, about 20% had one in any assay.
I'd be grateful if you could share measured growth for these entries.
Expressed in %, but write only the number.

-- ask What does the record list as growth for `COc1cc(CCN=Cc2ccccc2O)c([N+](=O)[O-])cc1OC` ?
-- reply 108

-- ask Need growth of `CN(C)CCC(=O)c1ccc(O)cc1` , thanks.
-- reply 110

-- ask Find the recorded growth belonging to `COC(=O)/C=C/C(=O)NC(N)=O` and report it.
-- reply 96.2

-- ask Which growth reading was recorded for the compound `NCC(=O)CCC(=O)O` ?
-- reply 99.8

-- ask Report growth for CC(=O)OCC1CCCO1 (configuration not stated) please.
-- reply 92

-- ask Requested field: growth. Item: `O=C1C=C(Nc2ccc([N+](=O)[O-])cc2)c2ccccc2C1=O`
-- reply 62.3

-- ask Given the entry `O=C(Cc1ccc(OCc2ccccc2)cc1)NCc1ccc2c(c1)OCO2` , report its measured growth.
-- reply 82.4

-- ask Quick one: growth of `O=C(Nc1cccc(NC(=O)Nc2cc(C(F)(F)F)ccc2Cl)c1)Nc1cc(C(F)(F)F)ccc1Cl` ?
-- reply 36.2

-- ask Value lookup for growth; key = `Cc1ccc(/C=C2\SC(=S)N(c3ccc(F)cc3)C2=O)o1`
-- reply 92.2

-- ask So what does the record say about growth for `N#Cc1ccc(NC(=O)Nc2cccc(C#N)c2)cc1` ?
-- reply 115

-- ask Sample `CC1=CC(=O)c2ccccc2C1=O` — what was its growth?
-- reply 108

-- ask Item under review: `NC(=O)c1ccc(N=C(N)N=C(N)N)cc1` . Reported growth?
-- reply 100

-- ask // lookup growth for `CC1=NN(c2ccccc2)C(=O)/C1=C\N1CC(=O)NC1=S`
-- reply 101

-- ask Any idea what its growth is? The compound is CC(O)COc1ccc(-c2ccccc2)cc1 (configuration not stated)
-- reply 105

-- ask Give its growth value. Item: COc1ccccc1C1OC2=Nc3cc(C)c(C)cc3NC2C1=O (configuration not stated)
-- reply 79.6

-- ask Fill blank: measured growth of the compound `CCCNc1ccc(C2=NCCCN2)cc1` is ____.
-- reply 107

-- ask Requested read-out: growth. Entry: `CCS(=O)(=O)c1cc(=O)[nH]c(=O)[nH]1`
-- reply 116

-- ask Any idea what growth was measured for CC1CC(O)C2C3(C)CCCC2(COC3=O)C12CCC1(CCOC1=O)O2 (configuration not stated) ?
-- reply 105

-- ask Query: growth; subject: `COc1ccc(C)cc1OC`
-- reply 108

-- ask Could you tell me which growth is on file for CS(=O)CC1=NC(=N)N=C1CS(C)=O (configuration not stated) ?
-- reply 108

-- ask Look up growth for this compound: `CCOC(=O)c1[nH]c(C)c(C(=O)O)c1C`
-- reply 118

-- ask Which growth is reported for this compound? CCC(C)(O)c1ccc(C)cc1 (configuration not stated)
-- reply 97.8

-- ask I have this compound here, `Cc1cc(/C=C/c2ccc3cc(N(C)C)ccc3[n+]2C)c(C)n1-c1ccccc1` , and I need its recorded growth.
-- reply -32.2

-- ask Find the recorded growth belonging to `O=C(c1ccc(Cl)cc1)c1ccccc1Cl` and report it.
-- reply 96.3

-- ask What growth value was documented for this compound, `O=C(CS)Nc1ccc2ccccc2c1` ?
-- reply 108

-- ask Bench note: what growth did `c1ccc(Sc2ccccc2)cc1` show?
-- reply 104

-- ask Recorded growth of `Cc1cc(C)cc(NCCC#N)c1` , please.
-- reply 106

====

system: SF-539 CNS; test: NCI-60 one-dose screen, 48 h (100 = growth as untreated, 0 = no growth, -100 = all killed); settings: 10 µM
About 83,000 compounds went through this panel and 20% of them were active in at least one assay; those are over-represented in the sample as a whole.
measured_property: growth (%)
Number in %, nothing else.

-- ask So what's the measured growth for this one? `Cc1c(O)cccc1O`
-- reply 103

-- ask Requested read-out: growth. Entry: `CCCCCC(C)(CC(=O)O)CC(=O)O`
-- reply 105

-- ask Given `COC(=O)c1cccc(Br)c1` , state its recorded growth.
-- reply 98.7

-- ask So what's the measured growth for this one? CC(=O)OC(OC(C)=O)C1CCCO1 (centres undefined)
-- reply 100

-- ask Fill in: growth of `COC(=O)Nc1nc2ccc(C(=O)c3cccs3)cc2[nH]1` is ___
-- reply 10.3

-- ask So what's the measured growth for this one? `CC(C)=CC(=O)OC(=O)C=C(C)C`
-- reply 105

-- ask Item under review: `Cc1ccncc1C(N)=O` . Reported growth?
-- reply 95.7

-- ask Look up growth: `CN(C)C(=O)Oc1cccc([N+](C)(C)C)c1`
-- reply 106

-- ask // returns reported growth for input CC(=Nc1ccccc1)C1=C(O)C(Cc2cccc(F)c2)NC1=O (centres undefined)
-- reply -17.5

-- ask Form field: reported growth of CC(=O)OCCC(C)CCC=C(C)C (centres undefined)
-- reply 99.1

-- ask What value of measured growth is listed for COc1ccc(C(C)C=O)cc1 (centres undefined) ?
-- reply 99

-- ask Request the reported growth associated with `NC(=O)N/N=C\c1ccco1`
-- reply 109

-- ask Given the compound `CCOc1ccc(/C=N/N=C(N)N)cc1OCC` , what is its reported growth?
-- reply 99.8

-- ask Dear colleague, I am looking for the recorded growth of the following compound: `O=C1OC[C@H]2[C@H](c3ccc(O)c(O)c3)c3cc(O)c(O)cc3C[C@H]12`
-- reply 122

-- ask Look up growth: `O=C1C[C@H](c2ccccc2)[C@H](c2ccccc2)C1`
-- reply 103

-- ask Suppose we examine the compound `O=S(=O)(O)c1ccc(Cl)c(Cl)c1` ; what growth value has been reported?
-- reply 107

-- ask Report growth for `COC1=CC(=O)c2nc(Cl)ccc2C1=O` please.
-- reply 88.3

-- ask What growth value was documented for this compound, `O=C(O)c1ccccc1NCc1ccco1` ?
-- reply 103

-- ask Give its growth value. Item: `Nc1ccccc1C(=O)Nc1ccc(Cl)cc1Cl`
-- reply 94.4

-- ask I'd like to know its growth. The compound in question is `O=c1cc(-c2ccccc2)[nH]c(=S)[nH]1`
-- reply 102

-- ask # lookup: growth of O=C(O)C(O)c1ccccc1 (centres undefined)
-- reply 94

-- ask Param item = `COc1ncnc2c1cnn2C` ; retrieve measured growth.
-- reply 96.8

-- ask I have this compound here, `Cc1ncc(C#N)c(N)n1` , and I need its recorded growth.
-- reply 105

-- ask Can you look up the measured growth of `CC(=O)Nc1ccc(NC(C)=O)c2c1C(=O)c1ccccc1C2=O` for me?
-- reply 92.3

-- ask # lookup: growth of `Cc1ccc(S(=O)(=O)O)c(C)c1`
-- reply 101

-- ask Param item = CC1OC(Oc2c(-c3ccc(O)c(O)c3)oc3cc(O)cc(O)c3c2=O)C(O)C(O)C1O (centres undefined) ; retrieve measured growth.
-- reply 110

-- ask Which growth value is on record for `O=c1cc(-c2ccccc2)oc2c1ccc1ccccc12` ?
-- reply 81.2

-- ask Which growth value is on record for `Cc1ccc(C(=O)NC2c3ccccc3Oc3ccccc32)cc1` ?
-- reply 61.3

-- ask Endpoint output: growth of `CCOc1ccc(Br)cc1/C=N\N=C\c1cc(Br)ccc1OCC` . Value?
-- reply 101

-- ask Quick one: growth of `c1c(-c2cc(C3CC3)[nH]n2)n[nH]c1C1CC1` ?
-- reply 101

-- ask Can you look up the measured growth of `O=c1[nH]n(-c2ccccc2)c(=O)cc1Cl` for me?
-- reply 97.7

-- ask Can you share its growth? I mean this compound: CC(CN1CCCCC1)NC(=O)c1scnc1-c1ccccc1 (centres undefined)
-- reply 114

-- ask Quick check: growth of `CN(C)c1ccc(C(c2ccc(O)cc2)c2ccc(N(C)C)cc2)cc1` ?
-- reply 104

-- ask Tell me the measured growth of `COc1ccccc1N=Nc1c(O)ccc2cc(S(=O)(=O)O)ccc12` , please.
-- reply 103

====

system: OVCAR-4 ovarian; assay: NCI-60 one-dose screen, 48 h (100 = growth as untreated, 0 = no growth, -100 = all killed); settings: 10 µM
The panel holds about 83,000 compounds, 20% with a hit somewhere; the sample as a whole holds those more often.
Would you kindly list growth for each of these compounds?
Numbers only here, please. The scale is %.

-- ask Item under review: `CC1=CC(=O)c2ccccc2C1=O` . Reported growth?
-- reply 112

-- ask Which growth is reported for this compound? `COC(=O)c1ccccc1Br`
-- reply 103

-- ask Looking for the measured growth of `COC(=O)c1ccccc1N(C)C` , can you help?
-- reply 101

-- ask growth lookup needed for `CCOC(=O)c1ccc(Nc2sc(C(=O)c3cccc([N+](=O)[O-])c3)c(N)c2C#N)cc1` , thanks.
-- reply 33.1

-- ask Given the entry CCCCC1(CC)COC(CCC)OC1 (configuration not stated) , report its measured growth.
-- reply 115

-- ask // returns reported growth for input `CNC(=O)c1ccccc1CC1(O)c2ccccc2Oc2ccccc21`
-- reply 83.6

-- ask For `CCn1c(=O)n(C)c2c(=O)n(C)c(=O)n(C)c21` , what is its reported growth?
-- reply 111
